Biological target: T1, 4H3651-AA
T1 chain: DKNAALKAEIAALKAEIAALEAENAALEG
Experiment: two-hybrid library CCmax;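 further: natural log of median RNA to DNA barcode read ratio; higher means stronger binding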
Details: mean of both orientations
Measurement name: interaction score

binder="DKIAALKAENAALEAKNAALKAKIAALKG [4H2750-AA]" endpoint_result=-1.22
binder="DEIAALEAENAALEAEIAALKAENAALKG [4H140-AA]" endpoint_result=-1.02
binder="DEIAALEAKIAALKAKIAALEAENAALEG [4H355-AA]" endpoint_result=0.086
binder="DKIAALKAKNAALKAEIAALKAENAALKG [4H3020-AA]" endpoint_result=-1.36
binder="DKIAALKAEIAALEAKIAALEAKNAALKG [4H2600-AA]" endpoint_result=0.646
binder="DKNAALEAKIAALEAKIAALEAKIAALEG [4H3365-AA]" endpoint_result=-0.441
binder="DENAALEAEIAALKAKIAALKAKNAALKG [4H1136-AA]" endpoint_result=2.2
binder="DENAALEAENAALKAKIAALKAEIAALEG [4H1257-AA]" endpoint_result=-1.01
binder="DKIAALKAKIAALKAENAALEAEIAALKG [4H2898-AA]" endpoint_result=-0.71
binder="DENAALEAEIAALKAENAALEAKIAALKG [4H1110-AA]" endpoint_result=-1.2
binder="DENAALKAKIAALEAEIAALKAEIAALKG [4H1802-AA]" endpoint_result=-1.48
binder="DKIAALKAENAALEAKIAALEAEIAALEG [4H2721-AA]" endpoint_result=-1.51
